Tested on: OVCAR-4 ovarian
test-method-notes: NCI-60 one-dose screen, 48 h (100 = growth as untreated, 0 = no growth, -100 = all killed)
measurement-context: 10 µM unless noted
This is part of a sample that, as a whole, favours compounds with a hit. Of some 83,000 tested, about 20% had one in any assay.
We use 90% as the dividing line for growth: on or above the line is true, below is false.

[[record]]
molecule = "CC(C)C(C(=O)O)n1c(O)c(/C=C2/C=c3cc4c(cc3=NC2=O)OCO4)sc1=S (configuration not stated)"
label_class = "true"

[[record]]
molecule = "CCCCOc1ccc(NC(=O)c2sc3nc(C)ccc3c2N)cc1"
label_class = "false"

[[record]]
molecule = "CC1(C)CC[C@]2(C(=O)O)CC[C@]3(C)C(=CCC4[C@@]5(C)C[C@@H](O)[C@@H]6OC(c7ccccc7F)OC[C@@]6(C)C5CC[C@]43C)C2C1 (some centres not stated)"
label_class = "false"

[[record]]
molecule = "C=C1CC[C@@H]2[C@]3(C)COC(c4cn(-c5ccccc5)nc4-c4ccccc4)O[C@@H]3CC[C@@]2(C)[C@@H]1C/C=C1/C(=O)OC[C@H]1O (some centres not stated)"
label_class = "false"

[[record]]
molecule = "N#Cc1c(-c2ccccc2Cl)cc(-c2c[nH]c3ccccc23)[nH]c1=O"
label_class = "false"

[[record]]
molecule = "NC(=S)Nc1cccc(NC(N)=S)c1"
label_class = "true"

[[record]]
molecule = "COc1ccc(-c2nc3ccc(C(=O)NN4C(=O)c5ccc([N+](=O)[O-])cc5C4=O)cc3[nH]2)cc1"
label_class = "true"

[[record]]
molecule = "CC(=O)Nc1ccc(-c2cn(-c3cccc(C(=O)Nc4ccc(N5CCN(C)CC5)cc4)c3)nn2)cn1"
label_class = "true"

[[record]]
molecule = "CCCCNC(=S)Nc1ccc(OCc2nc3ccccc3[nH]2)cc1"
label_class = "false"

[[record]]
molecule = "N/C(=N\\c1nc2ccccc2s1)NC(=O)Nc1ccc(Cl)cc1Cl"
label_class = "false"

[[record]]
molecule = "Cc1ccc(C2=NN(c3nc(-c4cc5ccccc5oc4=O)cs3)C(c3ccc(C)cc3)C2)cc1 (configuration not stated)"
label_class = "true"

